tested on: MS2 coat protein; assay: apparent KD of MS2 coat protein; designed switch direction (-1 OFF switch, 1 ON switch): -1; higher = weaker reporter binding; conditions: input ligand: FMN 200 uM
Each entry gets class 0 if its apparent KD of MS2 coat protein stays under 60 nM, and class 1 if its apparent KD of MS2 coat protein is 60 nM or above.

Use these answered entries as a reference point.
>>> qualitative_label("UAACAGUAAGGAUAUCCAGAUCCAGACAUGAGGAUCACCCAUGUCAAAUACCUUUGACACGGAGAAGGUACGAAAA [EX5 A.26] (Eterna round: R97, puzzle: Exclusion 5)")
"class 0"
>>> qualitative_label("UUUAUGCUAGGAUAUGCACCCUCGAACAUGAGGAUCACCCAUGUACAAUAAACGCAUGAAGCAGAAGGAGCUUCCA [EX5 A.20] (Eterna round: R97, puzzle: Exclusion 5)")
"class 0"
>>> qualitative_label("UUUUGGCAAGCGAGAUCCUACAUGAGGAUCACCCAUGUUGACCAUGGUUUCCAUGGUCAUUUUGCUCGUCUUGUGUG [jl TITIN mod 2] (Eterna round: R97, puzzle: Sensor, turn-off variant 1)")
"class 0"

IN: Is it the case that UUAGCGUAUGUAAGGAUAUGCUGGUCUAAUGAUCAGCAGAAGGUACAUGAGGAUCACCCAUGUGGAUUCGUUAU [Mod of JL 8 - Jieux - Brourd's mod of Exclusion 4] (Eterna round: R97, puzzle: Brourd's mod of Exclusion 4) has apparent KD of MS2 coat protein reaching or exceeding 60 nM?
OUT: class 1

IN: Is it the case that CUGCUGGAGUUUUGCUUUGGUCGUACAUGAGGAUCACCCAUGUAGGAUAUGGUAAAAUUCGCCUGCUAGAAGGAUAGAGUGGUC [salish99_ExNG3_r04_621] (Eterna round: R96, puzzle: Exclusion NG 3) has apparent KD of MS2 coat protein reaching or exceeding 60 nM?
OUT: class 0

IN: Is it the case that GUCUGGUUAGGAUAUACAGUGUCCACGAGUUAGUUGCCCUAACAUGAGGAUCACCCAUGUAGAAGGAGCGAGAA [Erisared] (Eterna round: R96, puzzle: Exclusion 2) has apparent KD of MS2 coat protein reaching or exceeding 60 nM?
OUT: class 0

IN: Is it the case that CUGAACCCGGUAGGAUAUAUUGUGGGCAGGCGUGGAACGACAUGAGGAUCACCCAUGUAAUUUAGGUAGAAGGGCCGAGAGAUU [Excl-NG2-LRO13] (Eterna round: R96, puzzle: Exclusion NG 2) has apparent KD of MS2 coat protein reaching or exceeding 60 nM?
OUT: class 0

IN: Is it the case that UCUUCACAUGAGGAUCACCCAUGUGAGGAUAUGGAUUCGCUGGCCGUAGCCAGUGGAUCCAGAAGGCGCGUGAU [JL-ex1-4.23] (Eterna round: R97, puzzle: Exclusion 1) has apparent KD of MS2 coat protein reaching or exceeding 60 nM?
OUT: class 1

IN: Is it the case that UCGCUCCGUGUAGGAUAUCGCCGUACUAUGCGGCGAGAAGGACAUGAGGAUCACCCAUGUAUGUUAUUAUCACGCGUGGCGCAA [Design 61] (Eterna round: R96, puzzle: Exclusion NG 1) has apparent KD of MS2 coat protein reaching or exceeding 60 nM?
OUT: class 0

IN: Is it the case that UUUACAAGCUAUUGAUCCCACAUGAGGAUCACCCAUGUUGCUGCCGGUGACGGUAGCAUAACAAUUGCUCGUCUUAU [JL TOV1 3.56] (Eterna round: R97, puzzle: Sensor, turn-off variant 1) has apparent KD of MS2 coat protein reaching or exceeding 60 nM?
OUT: class 1

These data points were gathered from the supplement of paper PMC9170038.
